Test system: KB human nasopharynx cancer
PROCEDURE DETAILS: In vitro anti-tumor activity against KB human nasopharynx cancer (MTT)
Format: cell-based
ASSAY CONTEXT: KB, 72 h, MTT, read-out: IC50
Measured IC50 of individual entries
Report the value in µg/mL with no unit label.

A selection of reference data follows.
C[C@@H]1CN(c2ccc3c(=O)c(C(=O)O)cn(-c4nccs4)c3n2)C[C@@]1(C)N (relative stereo) [Compound 12] :: 0.125
CC1(N)CCN(c2ccc3c(=O)c(C(=O)O)cn(-c4nccs4)c3n2)C1 (stereo not shown) [Compound 10] :: 0.19
Cl.Nc1cc(N2CCC(N)C2)nc2c1c(=O)c(C(=O)O)cn2-c1nccs1 (stereo not shown) [Compound 9] :: 0.106
C[C@@H]1CN(c2ccc3c(=O)c(C(=O)O)cn(-c4nccs4)c3n2)C[C@H]1N (relative stereo) [Compound 7] :: 0.111
CNC1(C)CCN(c2ccc3c(=O)c(C(=O)O)cn(-c4nccs4)c3n2)C1 (stereo not shown) [Compound 4] :: 0.172

(Q) Requested field: IC50. Item: CN[C@@H]1CN(c2ccc3c(=O)c(C(=O)O)cn(-c4nccs4)c3n2)C[C@H]1OC.Cl (single isomer, unassigned) [Compound 1-3]
(A) 0.208

(Q) Same question for CN[C@@H]1CN(c2ccc3c(=O)c(C(=O)O)cn(-c4nccs4)c3n2)C[C@H]1C (relative stereo) [Compound 5] please.
(A) 0.0805

---

PROCEDURE DETAILS: physchem
ASSAY CONTEXT: 0.1 m phosphate buffer, pH 7.2, aqueous buffer
PROPERTY LABEL: solubility (mg/mL)
Your answer is read as mg/mL, so omit the unit and give the number.

(Q) Look at this compound and give its reported solubility. CN[C@@H]1CN(c2ccc3c(=O)c(C(=O)O)cn(-c4nccs4)c3n2)C[C@H]1OC.Cl (relative stereo) [Compound 1-1]
(A) 20.1

---

Test system: murine P388 lymphocytic leukemia cells
PROCEDURE DETAILS: In vitro anti-tumor activity against murine P388 lymphocytic leukemia cells (MTT, 72 h)
Assay type: cell-based
ASSAY CONTEXT: Mus musculus; murine P388 cells, 72 h, MTT; read-out: IC50 (50% proliferation inhibitory concentration)
PROPERTY LABEL: IC50 (µg/mL)
// note: answer is a bare numeric in µg/mL

Take a look at these entries with their results.
CN[C@@H]1CN(c2ccc3c(=O)c(C(=O)O)cn(-c4nccs4)c3n2)C[C@H]1OC.Cl (single isomer, unassigned) [Compound 1-3] :: 0.02
CN[C@@H]1CN(c2ccc3c(=O)c(C(=O)O)cn(-c4nccs4)c3n2)C[C@H]1C (relative stereo) :: 0.0117

Here's the next entry for you.
(Q) Can you share its IC50? I mean this molecule: CN[C@@H]1CN(c2ccc3c(=O)c(C=O)cn(-c4nccs4)c3n2)C[C@H]1OC.Cl (relative stereo)
(A) 0.0309

---

Tested on: murine P388 lymphocytic leukemia cells
PROCEDURE DETAILS: In vitro anti-tumor activity against murine P388 lymphocytic leukemia cells (MTT, 72 h)
Type: cell-based
ASSAY CONTEXT: Mus musculus; murine P388 cells, 72 h, MTT; read-out: IC50 (50% proliferation inhibitory concentration)
PROPERTY LABEL: IC50
Answer format: value, then unit.

Below: 5 compounds and their reported IC50.
CN[C@@H]1CN(c2ccc3c(=O)c(C(=O)O)cn(-c4nccs4)c3n2)C[C@@H]1OC (relative stereo) :: 0.02 µg/mL
CN[C@@H]1CN(c2ccc3c(=O)c(C(=O)O)cn(-c4nccs4)c3n2)C[C@H]1OC (single isomer, unassigned) :: 0.00641 µg/mL
CCN[C@@H]1CN(c2ccc3c(=O)c(C(=O)O)cn(-c4nccs4)c3n2)C[C@H]1OC (relative stereo) :: 0.0252 µg/mL
CNC1CCN(c2ccc3c(=O)c(C(=O)O)cn(-c4nccs4)c3n2)C1 (stereo not drawn) :: 0.0105 µg/mL
CN[C@@H]1CN(c2ccc3c(=O)c(C(=O)O)cn(-c4nc(F)cs4)c3n2)C[C@H]1OC (relative stereo) :: 0.0344 µg/mL

Next item in the queue.
(Q) IC50 lookup needed for CN[C@@H]1CN(c2cc(N)c3c(=O)c(C(=O)O)cn(-c4nccs4)c3n2)C[C@H]1OC (relative stereo) , thanks.
(A) 0.0157 µg/mL
